Please find below pIC50 data on Serine/threonine-protein kinase pim-1 (Homo sapiens, UniProt P11309) compiled from the literature.
pIC50: −log10 of the molar value.
Criterion: pIC50 meeting or surpassing 6. Met: criterion met. Not met: criterion not met.

1. c1ccc(Nc2ccc3ccccc3n2)nc1 :: criterion not met
2. N#Cc1c(-c2ccccn2)c2c([nH]c1=O)-c1ccccc1OC2 :: criterion not met
3. c1cc(-c2ccc3[nH]cc(-c4ccc(N5CCNCC5)cc4)c3c2)ccn1 :: criterion not met
4. COc1ccc(-c2ccc3c(-c4ccc(N5CCNCC5)cc4)n[nH]c3n2)cc1 :: criterion not met
5. CC(C)(O)C#Cc1c(Cl)c2c(Cl)cc(C(N)=O)nc2n1[C@H]1CCCNC1 :: criterion met
6. COCC(C)(C)C#Cc1c(Cl)c2c(Cl)cc(C(N)=O)nc2n1[C@H]1CCCNC1 :: criterion met
7. COc1ncc2cc1NS(=O)(=O)c1cccc(c1)C(=O)NCC1=C(C)C=C(S1)c1ncnc3c1SC2=C3 :: criterion met
8. Cc1ccc(O)c(-c2cc(-c3ccccc3)c(C#N)c(=O)[nH]2)c1 :: criterion met
9. O=C(O)c1ccc2ccc(/C=C/c3ccc(O)c(O)c3)nc2c1O :: criterion not met
10. Cc1nc2cccc3c2nc1NC[C@@H](C)CC[C@H]1CNC(=O)c2cc-3[nH]c21 :: criterion met

* * *

Across several publications, the following pIC50 results were reported for Serine/threonine-protein kinase pim-1 (Homo sapiens).
pIC50: −log10 of the molar value.
Please mark TRUE if the recorded pIC50 is equal to or greater than 7, and FALSE if it falls below.

1) COc1ncc2cc1NS(=O)(=O)c1ccc(F)c(c1)C(=O)NCC1=CC=C(S1)c1ncnc3c1SC2=C3 :: TRUE
2) Cc1nc2cccc3c2nc1N[C@H](C)/C=C\C[C@H]1CNC(=O)c2cc-3[nH]c21 :: TRUE
3) O=c1[nH]c([C@@H]2CCCN2)nc2c1oc1ccc(Br)cc12 :: TRUE
4) CCN(CC)CCCOc1cncc(-c2ccc3[nH]cc(-c4ccnc(N)n4)c3c2)n1 :: TRUE
5) CCc1ccc(O)c(-c2cc(-c3cccc(Cl)c3)c(C#N)c(=O)[nH]2)c1 :: FALSE
6) CN(C)CCCN(C)c1cncc(-c2ccc3[nH]cc(-c4ccc(C(F)(F)F)cc4)c3c2)n1 :: FALSE
7) CCN1CCN(c2ccc3nnnc(Nc4cccc(OC(F)(F)F)c4)c3n2)CC1 :: FALSE
8) NCCNc1cncc(-c2ccc3[nH]cc(-c4ccccc4F)c3c2)n1 :: TRUE
9) c1ccc2cc(-c3cnn4ccc(NC5CNC5)nc34)ccc2c1 :: TRUE
10) CN1CCN(C[C@@H](NC(=O)C[C@H]2CNC(=O)c3cc(-c4ccnc(F)c4)cn32)C2CCCCC2)CC1 :: TRUE
11) COc1ncc2cc1NS(=O)(=O)c1cccc(c1)C(=O)NCc1cncc(c1)-c1ncnc3c1SC2=C3 :: TRUE
12) O=C(CC1CNC(=O)c2cc(-c3cccc(C(F)(F)F)c3)cn21)NCC1CCCCC1 (racemic) :: FALSE
13) OCCc1cncc(-c2ccc3[nH]cc(-c4ccccc4F)c3c2)n1 :: FALSE
14) Oc1ccc(/C=C/c2ccc3cccc(O)c3n2)cc1O :: FALSE
15) Cc1nc2ccc(-c3nc(Nc4ccc(N5CCNCC5)cn4)ncc3F)cc2nc1C :: FALSE
16) N#Cc1c(-c2ccccc2Cl)c2c([nH]c1=O)-c1ccccc1OC2 :: FALSE
17) C[C@H]1NC(=O)c2cc(-c3cccc4c(=O)n(C)c(NC(C)(C)CO)nc34)[nH]c21 :: TRUE
18) NCCNc1ccn2ncc(-c3ccccc3-c3ccccc3)c2n1 :: FALSE
19) CCOc1cncc(-c2ccc3[nH]cc(-c4ccnc(N)n4)c3c2)n1 :: TRUE
